Tested on: OCI-Ly10 cells
Assay name: Anti proliferative activity in OCI-Ly10 cells (CTG luminescence)
Assay type: cell-based
Stated conditions: Homo sapiens, OCI-Ly10, 72 h, at 1 μM
Recorded inhibition at 1 µM split into classes bucket 1 = under 10%, bucket 2 = from 10% up to 40%, bucket 3 = 40% and over

Observe how each entry below is paired with its result.
>>> group("C=CC(=O)N1CCN(C(=O)NC(C)C#Cc2ccc(Cl)c(Cl)c2)CC1=O (racemic)")
"bucket 1"
>>> group("C=CC(=O)N1CCN(C(=O)NC(C)C#Cc2ccc(Cl)c(NC(=O)C3CC3)c2)CC1 (racemic)")
"bucket 1"
>>> group("CC(C#Cc1ccc(Cl)c(Cl)c1)NC(=O)N1CCN(C(=O)/C=C/C(F)(F)F)CC1 (racemic)")
"bucket 3"
>>> group("C=CC(=O)N1CCN(C(=O)NC2(C#Cc3ccc(Cl)c(Cl)c3)CCCC2)CC1")
"bucket 2"
>>> group("C=CC(=O)N1CCN(C(=O)NC2(C#Cc3cccc4ccccc34)CC2)CC1")
"bucket 2"

Incoming: Class (by measured inhibition at 1 µM) for C=CS(=O)(=O)N1CCN(C(=O)NC2(C#Cc3ccc(Cl)c(Cl)c3)CC2)CC1
Outgoing: bucket 1

Incoming: Could you place O=C(/C=C/C(F)(F)F)N1CCN(C(=O)NC2(C#Cc3ccc(Cl)c(Cl)c3)CC2)CC1 in its proper category? Many thanks.
Outgoing: bucket 3

Incoming: Which band does C=CC(=O)N1CCN(C(=O)NC(C)C#Cc2ccc(C#N)c(C(F)(F)F)c2)CC1 (stereo not drawn) fall in?
Outgoing: bucket 3

Incoming: Note: place this molecule into its band. Item: CC(C#Cc1ccc(Cl)c(Cl)c1)NC(=O)N1CCC(N2C(=O)C=CC2=O)CC1 (stereo not drawn)
Outgoing: bucket 2

Incoming: Please classify: C=CC(=O)N1CCN(C(=O)NC2(C#Cc3ccc(Cl)c(Cl)c3)CC2)CC1
Outgoing: bucket 3

Incoming: Which class does C=CC(=O)N1CCN(C(=O)NC(C)(C)C#Cc2ccc(Cl)c(Cl)c2)CC1 fall in?
Outgoing: bucket 2

Incoming: Which class holds C=CC(=O)N1CCN(C(=NC#N)NC(C)C#Cc2ccc(Cl)c(Cl)c2)CC1 (racemic) ?
Outgoing: bucket 2

Incoming: Class (by measured inhibition at 1 µM) for CC(C)/C=C(\C#N)C(=O)N1CCN(C(=O)NC2(C#Cc3ccc(Cl)c(Cl)c3)CC2)CC1
Outgoing: bucket 1

Incoming: Class? Entry: C=CS(=O)(=O)N[C@H]1CC[C@@H](NC(=O)NC(C)C#Cc2ccc(Cl)c(Cl)c2)CC1 (mixture of isomers)
Outgoing: bucket 2

Incoming: Please classify: C=CC(=O)N1CC(N2CCN(C(=O)NC(C)C#Cc3ccc(Cl)c(C4(C)CC4)c3)CC2)C1 (stereo not drawn)
Outgoing: bucket 3

Incoming: Determine which band this molecule sits in: C=CC(=O)N1CCN(C(=O)NC(C)C#Cc2ccc(Oc3ccccc3)c(Cl)c2)CC1 (stereo not drawn)
Outgoing: bucket 1

Incoming: Please let me know in which category the item C=CC(=O)N1CCN(C(=O)NC(C)C#Cc2ccc(F)c(Cl)c2)CC1 (stereo not drawn) belongs.
Outgoing: bucket 3

* * *

System: NCI-H1792 cells
Assay name: Anti proliferative activity in NCI-H1792 cells by XTT assay
Assay type: cell-based
Stated conditions: Homo sapiens, NCI-H1792, 72 h, H1792 cell line, 72 hours incubation
Measured IC50, listed per entry.

>>> reported_measurement("C=CC(=O)N1CCC(C(=O)NC(C)C#Cc2ccc(Cl)c(Cl)c2)C1 (centres unmarked)")
"10 to 25 µM"
>>> reported_measurement("C=CC(=O)N1CCN(C(=O)NC(C#Cc2ccc(Cl)c(Cl)c2)CC)CC1 (racemic)")
"< 10 µM"
>>> reported_measurement("C=CC(=O)N1CCN(C(=S)NC(C)C#Cc2ccc(Cl)c(Cl)c2)CC1 (racemic)")
"10 to 25 µM"
>>> reported_measurement("C=CS(=O)(=O)NC1CCN(C(=O)NC(C)C#Cc2ccc(Cl)c(Cl)c2)CC1 (racemic)")
"10 to 25 µM"
>>> reported_measurement("C=CCN(C(=O)C=C)C1CCN(C(=O)NC(C)C#Cc2ccc(Cl)c(Cl)c2)CC1 (centres unmarked)")
"> 25 µM"
>>> reported_measurement("C=CC(=O)NC1CCN(C(=O)NC(C)C#Cc2ccc(Cl)c(Cl)c2)CC1 (centres unmarked)")
"> 25 µM"
>>> reported_measurement("CC(C#Cc1ccc(Cl)c(Cl)c1)NC(=O)N1CCN(C(=O)CCl)CC1 (centres unmarked)")
"< 10 µM"

Consider the additional molecule presented here.
Incoming: Form entry - test system: NCI-H1792 cells; read-out: IC50; molecule: C=CC(=O)N1CCN(C(=O)NC(C)C#Cc2ccc3[nH]ncc3c2)CC1 (centres unmarked)
Outgoing: > 25 µM
